Listed next: entries and their corresponding relative viability.
Test system: NCI-H1944
Test: relative viability (nuclei count vs DMSO), 5 days (fraction); higher = more cells survive
Settings: first compound 2.53 µM
readout: relative viability

{"compound": "CCCCCCCCCCCC1=C(O)C(=O)C=C(O)C1=O [Embelin] + CS(=O)(=O)N1CCN(Cc2cc3nc(-c4cccc5[nH]ncc45)nc(N4CCOCC4)c3s2)CC1 [Pictilisib] (partner 1 µM)", "value.observed": 0.36}
{"compound": "CCCCCCCCCCCC1=C(O)C(=O)C=C(O)C1=O [Embelin] + COc1cccc2cc(-c3nc([C@H]4CC[C@H](C(=O)O)CC4)n4ncnc(N)c34)[nH]c12 [OSI-027] (partner 0.5 µM)", "value.observed": 0.358}
{"compound": "CCCCCCCCCCCC1=C(O)C(=O)C=C(O)C1=O [Embelin] + Nc1nc2[nH]cc(CCc3ccc(C(=O)N[C@@H](CCC(=O)O)C(=O)O)cc3)c2c(=O)[nH]1 [Pemetrexed] (partner 0.2 µM)", "value.observed": 0.578}
{"compound": "CCCCCCCCCCCC1=C(O)C(=O)C=C(O)C1=O [Embelin] + CC(=O)Nc1cccc(-n2c(=O)n(C3CC3)c(=O)c3c(Nc4ccc(I)cc4F)n(C)c(=O)c(C)c32)c1 [Trametinib] (partner 0.02 µM)", "value.observed": 0.446}
{"compound": "CCCCCCCCCCCC1=C(O)C(=O)C=C(O)C1=O [Embelin] + CC1(C)CCC(c2ccc(Cl)cc2)=C(CN2CCN(c3ccc(C(=O)NS(=O)(=O)c4ccc(N[C@H](CCN5CCOCC5)CSc5ccccc5)c(S(=O)(=O)C(F)(F)F)c4)cc3)CC2)C1 [Navitoclax] (partner 0.5 µM)", "value.observed": 1.06}
{"compound": "CCCCCCCCCCCC1=C(O)C(=O)C=C(O)C1=O [Embelin] + Nc1ncn([C@H]2C[C@H](O)[C@@H](CO)O2)c(=O)n1 [Decitabine] (partner 2 µM)", "value.observed": 0.5}
{"compound": "CCCCCCCCCCCC1=C(O)C(=O)C=C(O)C1=O [Embelin] + Cc1nc(Nc2ncc(C(=O)Nc3c(C)cccc3Cl)s2)cc(N2CCN(CCO)CC2)n1 [Dasatinib] (partner 0.075 µM)", "value.observed": 0.245}

====

Consider the following molecules and their measured relative viability readings.
System: A549
Assay: relative viability (nuclei count vs DMSO), 5 days (fraction); higher = more cells survive
Settings: first compound 4 µM

{"molecule": "Clc1ccc(Nc2nnc(Cc3ccncc3)c3ccccc23)cc1 [Vatalanib] + Nc1ncn([C@H]2C[C@H](O)[C@@H](CO)O2)c(=O)n1 [Decitabine] (partner 2 µM)", "subject.of.test": "A549", "relative viability": 0.295}
{"molecule": "COc1cc(N2CCC(C(N)=O)CC2)ccc1Nc1nc(N)c(Cl)c(Nc2ccccc2S(=O)(=O)C(C)C)n1 [HG-5-88-01] + Cc1nc(NC(=O)N2CCC[C@H]2C(N)=O)sc1-c1ccnc(C(C)(C)C(F)(F)F)c1 [Alpelisib] (partner 2 µM)", "subject.of.test": "A549", "relative viability": 0.527}
{"molecule": "COc1cc(N2CCC(C(N)=O)CC2)ccc1Nc1nc(N)c(Cl)c(Nc2ccccc2S(=O)(=O)C(C)C)n1 [HG-5-88-01] + CS(=O)(=O)CCNCc1ccc(-c2ccc3ncnc(Nc4ccc(OCc5cccc(F)c5)c(Cl)c4)c3c2)o1 [Lapatinib] (partner 2 µM)", "subject.of.test": "A549", "relative viability": 0.411}
{"molecule": "COc1cc(N2CCC(C(N)=O)CC2)ccc1Nc1nc(N)c(Cl)c(Nc2ccccc2S(=O)(=O)C(C)C)n1 [HG-5-88-01] + CC1(C)CCC(c2ccc(Cl)cc2)=C(CN2CCN(c3ccc(C(=O)NS(=O)(=O)c4ccc(N[C@H](CCN5CCOCC5)CSc5ccccc5)c(S(=O)(=O)C(F)(F)F)c4)cc3)CC2)C1 [Navitoclax] (partner 0.5 µM)", "subject.of.test": "A549", "relative viability": 0.687}
{"molecule": "Clc1ccc(Nc2nnc(Cc3ccncc3)c3ccccc23)cc1 [Vatalanib] + Cc1nc(NC(=O)N2CCC[C@H]2C(N)=O)sc1-c1ccnc(C(C)(C)C(F)(F)F)c1 [Alpelisib] (partner 2 µM)", "subject.of.test": "A549", "relative viability": 0.707}
